- Test description: yeast display, Sf9 membrane polyspecificity reagent, FACS + sequencing; frameworks hold sequencing errors

# Biosequence, polyreactivity (PSR sort gate)
rows = [
    ("QVQLVESGGGLVQAGGSLRLSCAASGSIFYLYAMGWYRPAPGKERELVAAISRSGASTYYADSVKGRFTISRDNAKNTVYLQMNSLKPEDTAVYYCAAYKIWGRVRYDYWGQGTQVTVSS", "low polyreactivity"),
    ("QGQLVESGGGLVQAGGSLRVSCAASGYTFDSYAMGLYRQAPGKERELFAAITNGGSTYYADSVKGRFTISRDNAKKTVYLQLNSLKPEDTAVYYCATDDDQLDYLYDYWGPGTQVTVSS", "low polyreactivity"),
    ("QVQLVESSGGLVQAGGSLRLSCAASGSIFPSNAMGWYRQAPGKERELVARITGGGGNTYYADSVKGRFTISRDNAKNTVYLQMNSLKPEDTAVYYCAADYTNWKTGSNEMYYWGQGTQVTVSS", "low polyreactivity"),
    ("QVQLVESGGGLVQAGGSLRLSCAASGYIFYHYAMGWYRQAPGKERELVATISLGGGRTYYADSVKGRFTISRDTAKNTVYLQMNSLKPEDTAVYYCAADDGPGFDYWGQGTQVTVSS", "high polyreactivity"),
    ("QGQLVESGGGLVQAGGSLRLSCAASGRTLQYNAMGWYRPAPGKEWELVAAITSNGGSTYYADSVKGRFPISRDNAKNTVYLQMNSQKPEDTAVYDCAKAYRYVDRGYRLLRYGYWGQGNQVTVSS", "high polyreactivity"),
]

====

- Test description: yeast display, Sf9 membrane polyspecificity reagent, FACS + sequencing; frameworks hold sequencing errors

# Biosequence, polyreactivity (PSR sort gate)
measured = [
    ("QVQLVESGGGLVQAGVSLRLSCAASASTFTKYAMGWYRQAPGKERELVAAITASGGNTYYADSVKGRFTISRDNAKNTVYLQMYSLKPEDTAVYYCATGYHRWSSWALDYWGQGTQVTVSS", "high polyreactivity"),
    ("QVQLVESGGGLVQAGGSLRLSCAASGTLRYYAMGWYRQAPGKERELVAAISKSGGRTYYADSVKGRFTISRDNAKNTVYLQMNSLKPEDTAVYYCAARGWTANYEMDHWGQGTQVTVSS", "high polyreactivity"),
    ("QVQLVESGGGLVQAGGSLRLSCAASGSIFGVYTMGWYRQAPGKERELVAAISRNGGSTYYEDSVKGRFTISRDNAKNTVYLQMNSLKPEDTAVYYCATSTSRRYGSRHNYWGQGTQVTVSS", "high polyreactivity"),
    ("QVQLVESGGGLVQAGGSLRLSCAASGSTFKTYVMGWYRQAPGKERELVAGISDSGGTTYYADSVKGRFTISRDNAKNTVYLQMNSLKPEDTAGYYCAAVLYRRYTRARLDYWGQGTQVTVSS", "high polyreactivity"),
    ("QVQLVESGGGLVQAGGSLRLSCAASGSILVSYAMARYSQAPGKERELVAAISGNSDSTYYADSVKGRFTISRDNAKNTVYLQMNSLKPEDTAVYYCAKEGGNGYDYWGQGTQVTVSS", "low polyreactivity"),
    ("QVQLVESGGGLVQAGGSLRLSCAASGITFGAYAMGWDRQAPGKERELVASISSSGSTYADSVKGRFTISRDNAKTTVYLQMNSLKPEDTAVYYCNAVGFQANDYNYWRQGTQVTVSS", "low polyreactivity"),
    ("QVQLVESGGGLVQAGGSLRLSCAASGFIFKTYAMGWYRQAPGKERELVAAITGTGTSTYYADSVKGRFTISRDNAKNTVYLQMNSLKTEDTAVYYCAAEFGGRSYYPRHEYWGQGTQVTVSS", "low polyreactivity"),
    ("QVQLVESGGGLVQAGGSLRLSCAASGFTFWSYAMGWYRQAPGKERELVAAISRNGGRTYYADSVKGRFTISRDNAKNTVYVQMNSLKPEDTAVYYCATRARNRYTEMDYWGQGTQVTVSS", "high polyreactivity"),
    ("QVQLVESGGGLVQAGGSLRLSCAASGLIFYGNAMGWYREAPGKERELVAAISRRGGRTYYADSVKGRFTISRDNAKKSVYLQMHSLKPEDTAVYYCAAGVPKNGQAGYDYWGQGTQVTVSS", "high polyreactivity"),
    ("KVQLVESGGGLVQAGGSLRLSCAASGRTFRTYAMGWYRQAPGKERELVAANSSGGSTNYADSVKGRFTISRDNAKNTVYLQMNSLKPEDTSVYYCATRPTSDFVKRRVYEWLDYWGQGTQVTVSS", "low polyreactivity"),
    ("QVQLVESGGGLVQAGGSLRLSCAASGLIIRWNAMGWYRQAPAKERELVAAINRGGSTYYADSVKGRFTISRDNAKNTVYLQMTSLKPEDTAVYYCAVGYAHSSNRRYYYKKTHGYWGQGTQVTVSS", "low polyreactivity"),
]

====

- Test description: yeast display, Sf9 membrane polyspecificity reagent, FACS + sequencing; frameworks hold sequencing errors

# Biosequence, polyreactivity (PSR sort gate)
measured = [
    ("QVQLVESGGGLVKAGGSLRLSCAASGSIFRYYTMGWYRQAPGKEWELVAAINGSGGSTYYADSVKGRFTISRDTAKNTVYLQMNSLKPEDTAVYYCNRVTKEYGLRQYYYWGQGTQVTVSS", "low polyreactivity"),
    ("QVQLVESGGGLVQAVGRLRLSCAASGGIFSINAMGWYRQAPGKERELVAAIRWNSGRTYYADSVKGRFTISRDNAKNTVYLQMNSLKPEDTAVYYCAVRDYISWEDYYWGQGTQVTVSS", "high polyreactivity"),
    ("QVQLVESGGGLVQAGGSLRLSCAATGSPFILYALGWYRQAPGKERALVAAITTSGGSTYYADSVKGRFTISRDNAKNTVYLQMNSLKPEDTAVYYCNADWGWRYSSDFDYWGQGTQVTVSS", "low polyreactivity"),
    ("QVQLVESGGGLVQAGGSLRLSCAASGSTFYFYAMGWYRQAPGKEREFVAAITASGGSTYYADSVKGRFTISRDNAKNTVYLQMNSLKPEDTAVYYCAARFSYWKTKRAYDWGQGTQVTVSS", "high polyreactivity"),
    ("QVQLVESGGCLVQAGGSRSLSCAASGSIFYRNAMGWYRQAPGKERELVAAIRGSDGSTYYADSVKGRFTISRDNGKNTVYLQMNSLKPEDTAVYSCNADTPTWPLDYWGQGTQVTVSS", "low polyreactivity"),
]

====

- Test description: yeast display, Sf9 membrane polyspecificity reagent, FACS + sequencing; frameworks hold sequencing errors

# Biosequence, polyreactivity (PSR sort gate)
measured = [
    ("QVQLVESGGGLVQAGGSLRLSCAASGSTFGLYAMGWYRQAPGKERELVAAITGRASSTYYADSVKGRFTISRDNAKNTVYLQMNSLKPEDTAVYDCAASGFGQISNPRRDYWGQGTQVTVSS", "high polyreactivity"),
    ("QVHLVESAGGLVHAGGSHRLSCAASGFIFYRNAMGCYRQEPGKERELVAAISYRGARTYYADSVKGRFTISRDYEKNTVYLQMNSLKPEDTAVYYCAAQGVSSPGVDSWGQGTQVTVSS", "high polyreactivity"),
    ("QVQLVESGGGLVQAGGSLRLSCAASGRIIAVYAMGWYRQAPGKERELVATIRGGGSTNYADSVKGRFTISRDNAKNTVYLQMNSLKPEDTAVYYCAALGGRYRASTYGYWGQGTQVTVSS", "high polyreactivity"),
    ("QVQLVESGGGLVQAGGSLRLSCAASGFIFRYAMGWYRQAPGKERELVAAISSSGGSTNYADSVKGRFTISRDNAKNTVYLQMNSLKPEDTAVYYCAARDGRQPRGYRLVTYYAPMYYWGQGTQVTVSS", "high polyreactivity"),
    ("QVQLVESGGGLVQAGGSLRLSCAPSGYIFAPNAMGWYRQAPGKERELVAAITFSGGSTSYADSVKGRFTISRDNAKNTVYLQMNSLKPEDTAVYYCAAYWYSLYYLFPYDYWGQGTLVTVSS", "low polyreactivity"),
    ("QVQLVQSRGGLVHAGGSLRFSSAATGITILRYAMGWYIQAPGKERELVAGISWDGGRTYNADSVKGRFTISRDNAKNTVFLQMNSMKPEDTEVYYCADKPSRYRVSLFDYWGHGTQVTVSS", "low polyreactivity"),
    ("QVQLVESGGGLVQAGGSLRLSCAASGSIFGPYVMGWYRQAPGKERELVAAITFSGGSTYYADSVKGRFTISRDNAKNTVYLQMNSLKPEDTAVYYCNARPYSYRGSKRMYYWGQGTQVTVSS", "high polyreactivity"),
    ("QVQLVESGGGLVQAGGSLRLSCAASGRIFYSNAMGWYRQAPGKERELVATISRGGSTYADSVKGRFTISRDNAKNTVYLQMNSLKPEDTAVYYCAAGLQGYPRKFNYWGQGTQVTVSS", "low polyreactivity"),
    ("QVQHVESGGALVQAGGSLRLSCADSGRTFIFYAMGWYRQAPGKETELVASTSSGGSTNYADSVKGRFTISRDNAKNTVYLQMNILKPEDTAVYYCATRQYLYYSRGYGYWGQGTKVTVSS", "low polyreactivity"),
    ("QVQLVESGGGLVQAGGSLRLSCAASGGTFRTYAMGWYRQAAGKERELVAAITGSGGRTYYADSVKGRFTISRDNAKNTVYLQMNSLKPEDTAVYDCNTGPVYQGYHWGQGTQVTVSS", "high polyreactivity"),
    ("QVQLVESGGGLVQAGGSLRLSCAASGYTFKAYAMGWYRQAPGKERELVGGISRSGGSTYYADSVKGRFTISRDNAKNTVYLQMNSLKPEDTAVYYCAADSFSWETVVPSVFEFDYWGQGTQGTVSS", "low polyreactivity"),
    ("QVHLVDTGGGLVQARGRLRLSCPASGYNFSYYAMASYRQAPGKERELVATIDWGGGSTYYADSVQGRFTISRDIAKNTVYLQLNSLKPEDTGVYYCAKDYYINNYGYRYVSWGKGTQVTVSS", "low polyreactivity"),
    ("QVQLHESGGGLVQAGGSLRLSCAASGTISYAGPMGWYRQAPGKEREFVAGIGVGSNTNYADSVKGRYTIIRDNAKNTVYLQMNSLKPEDTAVYYCAVGGYAPLGRPDWGQGTQVTVRS", "low polyreactivity"),
    ("QVQLVESGGGLVQAGGSLRLSCAASGSTFVSSALGWSSQAPGKARELVARIRRSGGSTYYADSVKGRFTISRDNAKNTVYLQMNSLKPEDTAVYDCAAGYSRGQYRYNYWGQGTQVTVSS", "high polyreactivity"),
    ("QVQLVESGGGLVQAGGSLRLSCAASGYTFPLYAMGWYRQAPGKERELVATISSSGSRTYYADSVKGRFTISRDNAKNTVYLQMNSLKPEDTAVYYCAARYRAYVKLTSYDWGQGTQVTVSS", "high polyreactivity"),
    ("QVQLVESGGGLVQAGGSLRLSCAASGRIFYLNVMGWYRQAPGKERELVAAITRRDVTTYADSVKGRFTISRDNAKNTVYLQMKSLKPEDTAFYYCNAVYYNWIGFDYWGQGTQVTVSS", "low polyreactivity"),
    ("QVQLVESGGGLVQAGGSLRLSCAASGSIFDFYAMGWYRQAPGKVRELVAAITSGSNTYYADSVKGRFTISRDNAKNTVYLQMNSLKPEDTAVYYCAARRRIYRSMGYWGQGTQVTVSS", "low polyreactivity"),
    ("QVQLVESGGGLVQAGGSLRLSCASSGSIFFGYGMGWYRQAPGKERELVATITTSGGTYYADSVKGRFRISRDNAKNTDYLQMNSLKPEDTAVYYCAATAAALDGNTIMYYWGQGTQVTVSS", "low polyreactivity"),
    ("QVQLVESGGGLVQAGGSLRLSCAASGSTSLYNMGWSRQAPGKERELVAAIDSGSTNYADSVKGRFTISRDNAKNTVYLQMNSLKPEDTAVYYCAADGTNIGVYDRASYRDDYWGQGTQVTVSS", "low polyreactivity"),
    ("QVQLVESGGGLVQAGGSLRLSCAASGSTFYRNAMGWYRQAPGKEREFVADITLGGGSTYYADSVKGRFTISRDNAKNTVYLQMNSLTPEDTAVYYCAVVYWQLNYDYWGQGTQVTVSS", "low polyreactivity"),
    ("QVQLVESGGGLVQAGGSLRLSCAASGSILRRYAMGWYRQAPGKEREFVAAISYSGSRTYYADSVKGRFTISRDNAKNTVYLQMNSLKPEDTAVYYCAADSYGSRYEYWGQGTQVTVSS", "high polyreactivity"),
]

Origin of the recorded values: the nanobody polyreactivity screen of Harvey et al. (2022)
